The values you see were collected from PubChem BioAssay (NCI).

tested on: HCT-116 colon; assay: NCI tumour cell line growth inhibition, 48 h; in the data active = GI50 below about 0.43 µM; inactive = the rest
Respond only with the outcome that fits, drawn from active, inactive

Exercise: Which outcome was entered for the compound Oc1ccccc1-c1nn(CNc2cccc(Cl)c2)c(=S)o1 in this test?
Solution: inactive

Exercise: Which outcome was entered for the compound C/C=C(\C)C(=O)N[C@H]1CC[C@]2(C)C3CC[C@@]4(C)C(CC[C@@H]4C(C)N(C)C)C3CCC2[C@H]1OC(C)=O (stereo not given in full) in this test?
Solution: inactive

Exercise: Which outcome was entered for the compound CCC(C)(C)C(=O)O[C@H]1C[C@@H](C)C=C2C=C[C@H](C)[C@H](CC[C@@H]3C[C@@H](O)CC(=O)O3)[C@H]21 in this test?
Solution: inactive

Exercise: Which outcome was entered for the compound COc1ccc(-c2[nH]c3ccccc3c2C=C(C#N)C#N)cc1 in this test?
Solution: active

Exercise: Which outcome was entered for the compound CN(C)c1ccc(N2Cc3ccccc3OC3=C2C(=O)c2c(O)ccc(O)c2C3=O)cn1 in this test?
Solution: active
